This collection of values is drawn from patent US20150147318A1.

Each entry below carries its reported Kd.
Target: T1, recombinant canine Nerve Growth Factor (Canis lupus familiaris NGF) (canine (Canis lupus familiaris), UniProt Q29074 110-229 (pig entry), limits assumed)
T1 construct: also called canine NGF; Dog NGF
T1 chain: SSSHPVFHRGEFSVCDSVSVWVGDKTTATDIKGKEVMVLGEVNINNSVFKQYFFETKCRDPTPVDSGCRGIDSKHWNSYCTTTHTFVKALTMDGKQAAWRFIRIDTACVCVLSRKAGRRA
Assay: SPR, 1:1 binding fit, canine NGF

- Binder: "SSM-14 (LC SSMwtLCR53S, HC SSMwtHCG31E) (antibody, V domains shown) VH: EVQLVESGGDLARPGGSLKLSCVVSGFSLIEYDINWVRQAPGKGLQWVTMIWGDGTTDYNSALKSRFTVSRDNAMNTVYLQMNSLRVEDTAVYYCARGGYYYGTSYYFDYWGQGTLVTVSS VL: DIVMTQTPLSLSVSPGETASISCRASQDISNHLNWFRQKPGQSPQRLIYYISSFHSGVPDRFSGSGSGTDFTLRISRVEADDTGVYYCQQSKTLPYTFGAGTKLEIK"
  Measure Unit: "nM"
  Kd: 23.6
- Binder: "SSM-34 (LC SSM135LCR53S, HC135 (G103A)) (antibody, V domains shown, The light chain is the LTM135 template (E3M H32N) plus R53S) VH: EVQLVESGGDLARPGGSLKLSCVVSGFSLIGYDINWVRQAPGKGLQWVTMIWGDGTTDYNSALKSRFTVSRDNAMNTVYLQMNSLRVEDTAVYYCARGGYYYATSYYFDYWGQGTLVTVSS VL: DIVMTQTPLSLSVSPGETASISCRASQDISNNLNWFRQKPGQSPQRLIYYISSFHSGVPDRFSGSGSGTDFTLRISRVEADDTGVYYCQQSKTLPYTFGAGTKLEIK"
  Measure Unit: "nM"
  Kd: 3.08
- Binder: "SSM-13 (LC SSMwtLCR53S, HC SSMwtHCG31Q) (antibody, V domains shown) VH: EVQLVESGGDLARPGGSLKLSCVVSGFSLIQYDINWVRQAPGKGLQWVTMIWGDGTTDYNSALKSRFTVSRDNAMNTVYLQMNSLRVEDTAVYYCARGGYYYGTSYYFDYWGQGTLVTVSS VL: DIVMTQTPLSLSVSPGETASISCRASQDISNHLNWFRQKPGQSPQRLIYYISSFHSGVPDRFSGSGSGTDFTLRISRVEADDTGVYYCQQSKTLPYTFGAGTKLEIK"
  Measure Unit: "nM"
  Kd: 311
